A collection of molecules and their measured T/C
# Tested on: P388 leukemia ip, CD2F1 mice, survival T/C
# assay.overview: NCI In Vivo Anticancer Drug Screen. Data for tumor model P388 Leukemia (intraperitoneal) in CD2F1 (CDF1) mice
# measurement.parameters: endpoint: median survival time; dose: 50.0 mg/kg/injection; schedule: Q01DX009 (ip); vehicle: saline; higher = longer survival
Toxic doses and inconclusive results are not listed.
result.type: T/C

* CCOC(=O)c1ccc2nc(/N=C/c3ccccc3Cl)sc2c1 | 105 % of control
* O=NN(CCCCl)C(=O)NC1CCCCC1 | 104 % of control
* O=[N+]([O-])c1cc(NC(=S)SCc2ccccc2)ccc1Cl | 108 % of control
* c1ccc(SCCC(Sc2ccccc2)Sc2ccccc2)cc1 | 100 % of control
* C[n+]1ccc(/C=C/c2ccccc2O)cc1 | 106 % of control
* N#CC1=C(C#N)Sc2nc3cc(Cl)ccc3nc2S1 | 115 % of control
* CC(C)(C)c1cc(C(C)(C)C)c2oc(C(=O)O)cc(=O)c2c1 | 95 % of control
* C1=CNc2ccccc2N=C1 | 103 % of control
* CC(=O)CC(=O)Nc1ccccc1 | 88 % of control
* CC(C)(COS(C)(=O)=O)COS(C)(=O)=O | 107 % of control
* Cc1cnc2c(c1)CCCC2C(N)=S (configuration not stated) | 99 % of control
* CCOCC[Se]c1ccccc1 | 92 % of control
* CN(C)CCCNc1cc(/C=C/c2cccc3ccccc23)nc2ccccc12 | 92 % of control
* CN1CCC(O)CC1C(=O)O (configuration not stated) | 98 % of control
* C[n+]1c2ccccc2c(N=[N+]=[N-])c2ccccc21 | 109 % of control
* COC(=O)N1CCc2c([nH]oc2=O)C1 | 90 % of control
* Cc1ccc(C(C)C)c(OCCN)c1 | 94 % of control
* CN(C)c1nc(N)c(N=O)c(=O)[nH]1 | 87 % of control
* N#CC(C#N)C1C=C/C(=N\O)C1 (configuration not stated) | 102 % of control
* CCOC(=O)C1=C(C)NC(C)=C(C(=O)OCC)C1c1ccccc1Cl | 120 % of control
* CC(C)C1=CC2=CCC3C(C)(C(=O)O)CCCC3(C)C2CC1.[Ni] (configuration not stated) | 88 % of control
* CN(C)CCOc1ccc2c(c1)CCC2=O | 108 % of control
* C1C[O][Ge]2([O]1)[O]CC[O]2 | 108 % of control
* CC1(C)NC(=S)N(c2ccccc2C(=O)O)C2=C1CN(Cc1ccccc1)CC2 | 100 % of control
* CC(=O)NCC[N+](C)(C)C | 99 % of control
* COC(=O)/C(=C1/OC(=O)C(c2ccccc2)=C1O)c1ccccc1 | 95 % of control
* COc1cc(-c2ccc(Nc3ccccc3C(=O)O)c(OC)c2)ccc1Nc1ccccc1C(=O)O | 105 % of control

====

# Test system: P388 leukemia ip, CD2F1 mice, survival T/C
# assay.overview: NCI In Vivo Anticancer Drug Screen. Data for tumor model P388 Leukemia (intraperitoneal) in CD2F1 (CDF1) mice
# measurement.parameters: endpoint: median survival time; dose: 6.25 mg/kg/injection; schedule: Q01DX005 (ip); vehicle: saline with Tween-80; higher = longer survival
Inconclusive results and toxic doses are left out.
result.type: T/C

* O=C1c2cccc3cc([N+](=O)[O-])cc(c23)C(=O)N1Cc1cccnc1 | 100 % of control
* Cc1ccc(NCCN2CCN(CCNc3ccc(C)c4sc5ccccc5c(=O)c34)CC2)c2c(=O)c3ccccc3sc12 | 106 % of control
* COc1ccc2c3c(cccc13)-c1ccccc1C2=O | 95 % of control
* CCCCOC(=O)[C@@H]1O[C@H]2OC=C[C@H]21 | 100 % of control
* CC1CN=C(c2ccc(NC(=O)Nc3ccc(C4=NCC(C)N4)cc3)cc2)N1 (stereo not drawn) | 110 % of control
* [N-]=[N+]=Nc1ccccc1C(=O)NCCNC(=O)c1ccccc1N=[N+]=[N-] | 94 % of control
* C#CC(C)(CC(C)C)OCCN(CC)CC (stereo not drawn) | 106 % of control
* COc1cc(/C=N/NC(=O)COCC(=O)N/N=C/c2ccc(O)cc2OC)ccc1O | 103 % of control

====

# Test system: P388 leukemia ip, CD2F1 mice, survival T/C
# assay.overview: NCI In Vivo Anticancer Drug Screen. Data for tumor model P388 Leukemia (intraperitoneal) in CD2F1 (CDF1) mice
# measurement.parameters: endpoint: median survival time; dose: 400.0 mg/kg/injection; schedule: Q01DX009 (ip); vehicle: saline; higher = longer survival
Toxic doses and inconclusive results are not listed.
# T/C values compiled below
result.type: T/C

- CCCCCC(Cl)(CC)CCCCC: 109 % of control
- C#CCN(C)CCO: 116 % of control
- O=CN(O)CC(=O)O: 100 % of control
- Cc1cc(O)c(Cl)cc1Cl: 97 % of control

====

# System: P388 leukemia ip, CD2F1 mice, survival T/C
# assay.overview: NCI In Vivo Anticancer Drug Screen. Data for tumor model P388 Leukemia (intraperitoneal) in CD2F1 (CDF1) mice
# measurement.parameters: endpoint: median survival time; dose: 200.0 mg/kg/injection; schedule: Q01DX005 (ip); vehicle: saline with Tween-80; higher = longer survival
Inconclusive results and toxic doses are left out.
// T/C lookup, one value per entry
result.type: T/C

* [N-]=[N+]=NCCN(Cc1ccccc1)Cc1ccccc1 | 114 % of control
* CCN(CC)C(=S)Cl | 101 % of control
* C=COC(=O)C(NC(=O)OCc1ccccc1)c1ccccc1 (stereo not given) | 95 % of control
* O=C(c1ccc(Br)cc1)c1cnc2nc(-c3ccccc3)c(-c3ccccc3)nn12 | 96 % of control
* CCOc1c(N=Nc2ccccc2OC)c(-c2ccccc2)nn1C(=S)S | 108 % of control

====

# System: P388 leukemia ip, CD2F1 mice, survival T/C
# assay.overview: NCI In Vivo Anticancer Drug Screen. Data for tumor model P388 Leukemia (intraperitoneal) in CD2F1 (CDF1) mice
# measurement.parameters: endpoint: median survival time; dose: 100.0 mg/kg/injection; schedule: Q01DX005 (ip); vehicle: saline
Toxic doses and inconclusive results are not listed. How the source made its calls: active means survival T/C of 150% or more; inactive means T/C below 125% in these data.
Classes used: YES for active, NO for inactive

- COC(=O)C(N)COC(=O)c1ccccc1 (stereo not given): NO
- COc1ccc2c3c([nH]c2c1)C(C)=NCC3: NO
- CCN(CC)CCN1C(=O)[C@H]2CC=CC[C@H]2C1=O: NO
- N=C1CCCS1: YES
- C=C(C)CCN1C(=O)NC(C)(C)C1O (stereo not given): NO
- CCN1NC1C (stereo not given): NO
- CS(=O)CC(=O)c1ccccn1 (stereo not given): NO
- NC(CCCCNC=O)C(=O)O (stereo not given): NO
- CC1(C(=O)O)CCC2(C)CCC3(C)C(=CC(=O)C4C5(C)CCC(OC6OC(C(=O)O)C(O)C(O)C6OC6OC(C(=O)O)C(O)C(O)C6O)C(C)(C)C5CCC43C)C2C1 (stereo not given): NO
- COS(=O)(=O)N(C)c1nc(N(C)C)nc(N(C)C)n1: NO

====

# Test system: P388 leukemia ip, CD2F1 mice, survival T/C
# assay.overview: NCI In Vivo Anticancer Drug Screen. Data for tumor model P388 Leukemia (intraperitoneal) in CD2F1 (CDF1) mice
# measurement.parameters: endpoint: median survival time; dose: 50.0 mg/kg/injection; schedule: Q01DX009 (ip); vehicle: saline with Tween-80; higher = longer survival
Inconclusive results and toxic doses are left out.
result.type: T/C

• Sc1nc2ccccc2s1.Sc1nc2ccccc2s1.Sc1nc2ccccc2s1.Sc1nc2ccccc2s1.[Cl][Rh][Cl] = 93 % of control
• CCOC(=O)Cc1ccnc(C)c1 = 90 % of control
• N#CC1CPCCC1N (stereo not given) = 102 % of control
• CN(C)c1nc(O)cc(=O)[nH]1 = 106 % of control
• CC(=S)SC1(C)SC(C)(SC(C)=S)S1 (stereo not given) = 94 % of control
• NC(=Nc1ccccc1)Nc1ccccc1 = 102 % of control
• CN(C)c1ccc(NC(=O)c2ccccc2O)cc1 = 113 % of control
• NNC(=O)C(N)=O = 100 % of control
• Cc1ccccc1-c1nc2cc(Cl)ccc2c(=O)o1 = 110 % of control
• CC(=S)NC(O)C(=O)c1ccccc1 (stereo not given) = 121 % of control
• CCN(CC)Cc1cc(N=Nc2ccc3c(c2)c2ccccc2n3CC)c2ccccc2c1O = 86 % of control
• Cc1cccn2c(CCCc3nnc4c(C)cccn34)nnc12 = 100 % of control
• CCC[As](C)SC1OC(COC(C)=O)C(OC(C)=O)C(OC(C)=O)C1OC(C)=O (stereo not given) = 110 % of control
• Cc1ccccc1N1C(=O)CSC1=S = 105 % of control
• CC(CCOc1ccc2ccc(=O)oc2c1)C1=CC(=O)C(C)(C)O1 (stereo not given) = 116 % of control
• COc1ccc2sc3c(C)ccc(NCCN(C)C)c3c(=O)c2c1 = 115 % of control
• C[N+](C)(C)CCCCC[N+](C)(C)C = 104 % of control
• O=C1NC(=O)C2C1C1C(=O)NC(=O)C21 (stereo not given) = 94 % of control
• COC1/C=C/OC2(C)Oc3c(C)c(O)c4c(O)c(c(/C=N/n5c(=O)[nH]c6ccccc6c5=O)c(O)c4c3C2=O)NC(=O)/C(C)=C\C=C\C(C)C(O)C(C)C(O)C(C)C(OC(C)=O)C1C (stereo not given) = 107 % of control
• CCCCCCC(=O)/C=C/c1cc(OC)c(OC)cc1OC = 100 % of control
• CC(C)(C)c1ccc(C2=NNC(C(F)(F)F)=NN2)cc1 = 110 % of control
• CNC(=O)Cc1ccc2cc(OC)c(OC)cc2c1 = 90 % of control
• O=S(=O)(/C=C/c1cccnc1)/C=C/c1cccnc1 = 100 % of control
• COc1cc2c(c(OC)c1OC)-c1cc3c(cc1CC1COC(=O)C1C2)OCO3 (stereo not given) = 95 % of control
• ClC1=C(Cl)C(Cl)=C(Cl)C1=Cc1ccccc1 = 123 % of control
• CCCN(CCC)c1nc2ccc(NC(=O)OCC)cc2s1 = 101 % of control
• CCOCCSc1ccccc1 = 103 % of control
• C=CC(C#N)(C=C)C=C = 108 % of control
• CCCCB1OB(CCCC)OB(CCCC)O1 = 92 % of control
• NC(=S)N/N=C\C(=O)c1cccc([N+](=O)[O-])c1 = 94 % of control
• O=C(OC1CC2CCC1C2)c1cc([N+](=O)[O-])cc([N+](=O)[O-])c1 (stereo not given) = 107 % of control
• CCC1(CCC(C)C)C(=O)N(CCCl)C(=O)N(CCCl)C1=O = 100 % of control
• Cc1cc(O)c(C(c2ccccn2)c2c(O)cc(C)[nH]c2=O)c(=O)[nH]1 = 102 % of control
• CCCN1COC(OCCN(CC)CC)C(C)(C)C1 (stereo not given) = 108 % of control
• CC(=O)OC(C)N(C(C)=O)c1ncc([N+](=O)[O-])s1 (stereo not given) = 101 % of control
• O/N=C/c1ccc2c(c1)OCO2 = 99 % of control
• Nc1nc(N)c2nc(C(=O)c3ccccc3)c(-c3ccccc3)nc2n1 = 92 % of control
• Cc1c2cnccc2c(C)c2c1c1ccccc1n2CC1CO1 (stereo not given) = 88 % of control
• CCCCCCCCCCCCCCCC[N+]1([O-])CCOCC1 = 102 % of control
• COC(=O)C1CCCC(Sc2ccccc2)C1=O (stereo not given) = 101 % of control
• Cc1cc(C)c(S(=O)(=O)NN)c(C)c1 = 104 % of control
• CCC(c1ccc2cc(OC)ccc2c1)C(C)(C)C(=O)F (stereo not given) = 104 % of control
• CCCCC(C)C(=O)/C=C/c1ccc(Cl)c(Cl)c1 (stereo not given) = 105 % of control
• COc1ccc(-n2cc[n+](C)c2/C=N\O)cc1 = 97 % of control
• O=S(=O)(c1ccccc1)C(SC(=S)Sc1ccccc1)Sc1ccccc1 (stereo not given) = 114 % of control
• CCCCC(=O)N/N=C/c1ccc([N+](=O)[O-])s1 = 95 % of control
• O=C([Se][Se]C(=O)c1ccc(Cl)cc1)c1ccc(Cl)cc1 = 100 % of control
• Cc1nc(O)c(-c2ccc(Cl)cc2)s1 = 102 % of control
• O=C(COc1ccc(Cl)cc1Cl)Nc1ccccc1C(=O)c1ccccc1 = 101 % of control
• O=C(Nc1ccccc1)Oc1ccc(/C=N/Sc2cccc([N+](=O)[O-])c2)cc1 = 87 % of control
